Origin of values: patent US20230233690A1

Molecular target: AR protein (Homo sapiens, UniProt P10275)
Construct: endogenous in cells; host or cells: VCaP
Sequence (P10275 whole entry): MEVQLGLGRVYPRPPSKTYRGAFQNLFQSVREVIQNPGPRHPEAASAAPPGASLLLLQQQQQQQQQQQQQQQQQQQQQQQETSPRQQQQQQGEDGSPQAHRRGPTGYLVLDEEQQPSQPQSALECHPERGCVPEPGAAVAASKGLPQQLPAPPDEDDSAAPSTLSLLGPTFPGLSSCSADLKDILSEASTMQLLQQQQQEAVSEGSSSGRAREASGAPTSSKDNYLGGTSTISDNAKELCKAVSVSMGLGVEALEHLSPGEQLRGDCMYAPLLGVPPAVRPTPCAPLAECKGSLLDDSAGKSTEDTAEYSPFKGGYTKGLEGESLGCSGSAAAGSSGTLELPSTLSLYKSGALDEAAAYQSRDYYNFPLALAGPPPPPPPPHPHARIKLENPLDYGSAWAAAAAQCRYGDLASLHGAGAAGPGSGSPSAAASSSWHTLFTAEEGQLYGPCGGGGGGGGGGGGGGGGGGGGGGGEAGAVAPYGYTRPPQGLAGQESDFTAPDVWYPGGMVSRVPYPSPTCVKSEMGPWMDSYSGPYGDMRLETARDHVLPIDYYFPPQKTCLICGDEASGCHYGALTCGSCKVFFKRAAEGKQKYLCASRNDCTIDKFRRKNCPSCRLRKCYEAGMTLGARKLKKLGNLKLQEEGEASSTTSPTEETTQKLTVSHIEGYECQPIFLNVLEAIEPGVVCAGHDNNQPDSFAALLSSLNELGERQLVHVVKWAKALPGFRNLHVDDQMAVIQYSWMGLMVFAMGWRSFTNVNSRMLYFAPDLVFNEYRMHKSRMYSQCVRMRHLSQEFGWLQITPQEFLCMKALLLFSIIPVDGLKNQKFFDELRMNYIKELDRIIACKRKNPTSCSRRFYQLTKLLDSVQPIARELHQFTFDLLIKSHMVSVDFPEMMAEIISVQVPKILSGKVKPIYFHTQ
Assay: Western blotting of AR protein degradation in VCaP cells
Assay type: cell-based
Conditions: 1 μM
% AR protein degradation in VCaP Cells listing for selected compounds.
experimental readout: % AR protein degradation in VCaP Cells

1. CN(c1ccc(C#N)c(Cl)c1)[C@H]1CC[C@H](NC(=O)c2ccc(N3CC(N4CCN(c5ccc6c(c5)C(=O)N(C5CCC(=O)NC5=O)C6=O)CC4)C3)cc2)CC1 (stereo partly drawn) ... 75%
2. N#Cc1ccc(O[C@H]2CC[C@H](NC(=O)c3ccc(N4CCN(CC5CN(c6ccc7c(c6)C(=O)N(C6CCC(=O)NC6=O)C7=O)C5)CC4)cc3)CC2)cc1Cl (stereo partly drawn) ... 86%
3. N#Cc1ccc(O[C@H]2CC[C@H](NC(=O)c3ccc(N4CCC(N5CCN(c6ccc7c(c6)C(=O)N(C6CCC(=O)NC6=O)C7=O)CC5)CC4)cc3)CC2)cc1Cl (stereo partly drawn) ... 75%
